Recorded protein stability index for the following variants
B1: ZBTB22 (parent)
chain: FSSSSQEAFAASAVGSGERRGGGP

Variants of: B1
Test: protein stability index of a GFP-peptide fusion (GPS, HEK-293T) (PSI 1-6); higher = more stable;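 note: lentivirally expressed fusions sorted by FACS into six bins by GFP to DsRed ratio, PSI derived from sequencing read proportions per bin multiplied by bin number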
Conditions: c terminus: a fixed tail appended
The response must contain the number and no unit.

Answered examples (2):
G22S
3.33
R19L
2.87

Briefly, protein stability index measured for S5V : 4.15

Briefly, protein stability index measured for R19W : 2.04

Briefly, protein stability index measured for Q6I : 2.5

Briefly, protein stability index measured for S2M : 4.01

Briefly, protein stability index measured for P24E : 3.8

Briefly, protein stability index measured for A13D : 3.9

Briefly, protein stability index measured for E18V : 2.49

Briefly, protein stability index measured for E7N : 2.84

Briefly, protein stability index measured for G15N : 3.43

Briefly, protein stability index measured for S16H : 3.27
